Reported pIC50 by item:
# Tested on: bloodstream form T. brucei (strain 221)
# Assay protocol: Anti-trypanosomal screening, resazurin
# Format: cell-based
# Particulars: Trypanosoma brucei, mean of triplicate ± SEM
Remember, pIC50 is on a log scale: it is -log10 of the molar concentration.

Take a look at these entries with their results.
Cl.Cl.N=C(N)c1ccc2[nH]c(-c3ccc(OCc4cn(CSc5ccccc5)nn4)cc3)nc2c1 [Compound 7e]: 4.99
N=C(N)c1ccc2[nH]c(-c3ccc(OCc4cn(Cc5ccccc5)nn4)cc3)nc2c1 [Compound 7d]: 4.89
COc1ccc(-n2cc(COc3ccc(-c4nc5cc(C6=NCCN6)ccc5[nH]4)cc3)nn2)cc1.Cl.Cl [Compound 9b]: 5.80
CC(C)NC(=N)c1ccc2[nH]c(-c3ccc(OCc4cn(-c5ccccc5)nn4)cc3)nc2c1 [Compound 8a]: 5.15
c1ccc(-n2cc(COc3ccc(-c4nc5cc(C6=NCCN6)ccc5[nH]4)cc3)nn2)cc1 [Compound 9a]: 5.10

Query: pIC50; subject: CC(C)NC(=N)c1ccc2[nH]c(-c3ccc(OCc4cn(Cc5ccccc5)nn4)cc3)nc2c1 [Compound 8d]
4.89

Query: pIC50; subject: N=C(N)c1ccc2[nH]c(-c3ccc(OCc4cn(-c5ccccc5)nn4)cc3)nc2c1 [Compound 7a]
5.07
